target system: Stb4 (UniProt P50104)
Sequence (P50104 whole entry): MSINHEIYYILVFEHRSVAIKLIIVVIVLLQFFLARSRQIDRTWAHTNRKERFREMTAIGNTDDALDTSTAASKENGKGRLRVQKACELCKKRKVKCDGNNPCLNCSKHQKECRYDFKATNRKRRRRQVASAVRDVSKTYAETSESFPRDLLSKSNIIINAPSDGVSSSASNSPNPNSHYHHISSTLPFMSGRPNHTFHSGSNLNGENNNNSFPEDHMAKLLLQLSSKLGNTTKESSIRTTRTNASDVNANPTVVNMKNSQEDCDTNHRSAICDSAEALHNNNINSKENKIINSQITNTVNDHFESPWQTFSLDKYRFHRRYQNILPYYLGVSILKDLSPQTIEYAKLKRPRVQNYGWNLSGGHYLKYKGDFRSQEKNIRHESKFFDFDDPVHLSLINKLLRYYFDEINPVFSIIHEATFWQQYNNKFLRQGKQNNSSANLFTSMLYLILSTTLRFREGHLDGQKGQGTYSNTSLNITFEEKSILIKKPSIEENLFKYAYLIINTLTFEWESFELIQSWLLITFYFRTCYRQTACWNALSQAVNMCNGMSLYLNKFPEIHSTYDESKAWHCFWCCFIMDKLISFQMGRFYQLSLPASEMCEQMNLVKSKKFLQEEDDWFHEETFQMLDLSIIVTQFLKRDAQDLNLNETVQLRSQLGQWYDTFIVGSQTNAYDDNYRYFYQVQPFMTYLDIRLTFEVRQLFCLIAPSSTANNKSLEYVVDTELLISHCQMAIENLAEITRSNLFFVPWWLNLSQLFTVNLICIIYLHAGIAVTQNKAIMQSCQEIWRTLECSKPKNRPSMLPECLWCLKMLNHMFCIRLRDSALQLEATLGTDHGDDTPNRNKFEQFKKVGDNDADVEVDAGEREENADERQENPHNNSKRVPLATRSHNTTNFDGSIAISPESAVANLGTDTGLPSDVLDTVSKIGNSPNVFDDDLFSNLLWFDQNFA
assay details: PBM E-score (8-mer binding enrichment) (E-score (-0.5 to 0.5)); higher = stronger / more preferred TF binding
condition notes: protein concentration: 200 nM; construct: GST-DNA-binding domain
Over roughly 33,000 sequences, “E-score (-0.5 to 0.5)” has its median near -0.056; the highest 2% begin near 0.38. Only a selection was taken, and the highest values are over-represented in it overall.
Attribute: PBM E-score
readout type: PBM E-score

{"sequence": "ATAATCAT", "result value": -0.0964}
{"sequence": "CCGCTCTA", "result value": 0.0787}
{"sequence": "CGAAATGC", "result value": 0.124}
{"sequence": "CTTTGAGC", "result value": -0.151}
{"sequence": "ATATCCTC", "result value": -0.03}
{"sequence": "GCTGGCAC", "result value": -0.224}
{"sequence": "CAGAGAAA", "result value": -0.173}
{"sequence": "CAAGTTTA", "result value": -0.136}
{"sequence": "GGGATAGA", "result value": -0.0799}
{"sequence": "CCTCCGAA", "result value": 0.352}
{"sequence": "CGGATAGA", "result value": 0.454}
{"sequence": "CTGGCAGC", "result value": -0.168}
{"sequence": "ACTAGCAG", "result value": -0.298}
{"sequence": "TCGCGGAA", "result value": 0.315}
{"sequence": "ACTAAGCG", "result value": -0.0604}
{"sequence": "ACTCGGTG", "result value": 0.124}
{"sequence": "CTCCTGGC", "result value": -0.113}
{"sequence": "AGGGATGG", "result value": -0.174}
{"sequence": "GGCCGAGA", "result value": 0.347}
{"sequence": "CGTAGGGC", "result value": -0.195}
{"sequence": "AACGATAT", "result value": -0.0769}
{"sequence": "ACACGGAA", "result value": 0.338}

Source listed as the supplement of paper PMC3334620.
